- system: BRD4 BD2 (Homo sapiens)
- measurementDescription: AlphaScreen binding assay, BRD4 Bromodomain 2
pIC50: −log10 of the molar value.
Known pIC50 of a selection of molecules

>>> reportedresult("CC(=O)N1c2ccc(-c3cccc(S(=O)(=O)NCCO)c3)cc2N(C(=O)OC(C)C)C[C@@H]1C")
"6.30 to 7.30"

QUERY: Sample CC(=O)N1c2ccccc2N(S(=O)(=O)c2ccc(C)cc2C)C[C@@H]1C — what was its pIC50?
RESULT: < 6.30

QUERY: # query: pIC50 of entry CC(=O)N[C@@H]1CCN(C(=O)c2ccc(-c3ccc4c(c3)N(C(=O)OC(C)C)C[C@H](C)N4C(C)=O)cc2)C1
RESULT: > 7.30

QUERY: Which pIC50 value is on record for CC(=O)N1c2ccc(-c3cn(C)nn3)cc2N(C(=O)c2ccco2)C[C@@H]1C ?
RESULT: 6.30 to 7.30

QUERY: Given the molecule CC(=O)N1c2ccc(-c3ccc(C(=O)NCCN)cc3)cc2N(C(=O)c2ccco2)C[C@@H]1C , what is its reported pIC50?
RESULT: > 7.30

QUERY: Entry under review: CCOC(=O)N1C[C@H](C)N(C(C)=O)c2ccc(-c3ccc(OC)c(NS(C)(=O)=O)c3)cc21 . Reported pIC50?
RESULT: 6.30 to 7.30

QUERY: Consider the molecule CC(=O)N1c2ccc(-c3cnn(CC(C)(C)F)c3)cc2N(C(=O)OC(C)C)C[C@@H]1C and give its measured pIC50.
RESULT: 6.30 to 7.30

QUERY: Returns the measured pIC50 for the input molecule. Input: CC(=O)N1c2ccc(-c3ccc(C(=O)N4CC(O)C4)cc3)cc2N(C(=O)OC(C)C)C[C@@H]1C
RESULT: 6.30 to 7.30

QUERY: Recorded pIC50 of CC(=O)N1c2ccc(-c3cnn(C4COC4)c3)cc2N(C(=O)C2CCOCC2)C[C@@H]1C , please.
RESULT: < 6.30

QUERY: What value of measured pIC50 is listed for COC(=O)N1c2ccc(-c3ccc(C(=O)N4CCN(S(C)(=O)=O)CC4)cc3)cc2N(C(=O)OC(C)C)C[C@@H]1C ?
RESULT: 6.30 to 7.30

QUERY: Reported pIC50 for CC(=O)N1c2ccc(-c3cnn(Cc4c[nH]cn4)c3)cc2N(C(=O)OC(C)C)CC1C (stereo not drawn) : what is it?
RESULT: > 7.30

QUERY: Looking for the measured pIC50 of CNC(=O)c1ccc(-c2ccc3c(c2)N(C(=O)c2ccco2)C[C@H](C)N3C(C)=O)cc1 , can you help?
RESULT: > 7.30

QUERY: Recorded pIC50 of CC(=O)N1c2ccc(-c3ccc(S(C)(=O)=O)cc3)cc2N(C(=O)Nc2ccccc2C)C[C@@H]1C , please.
RESULT: < 6.30

QUERY: Which pIC50 value is on record for CCCn1cc(-c2cnc3c(c2)N(C(=O)c2ccco2)C[C@H](C)N3C(C)=O)cn1 ?
RESULT: < 6.30

QUERY: Need pIC50, item COc1ccc(-c2ccc3c(c2)N(C(=O)c2ccco2)C[C@H](C)N3C(C)=O)cn1
RESULT: 6.30 to 7.30

QUERY: What does the data say about its pIC50? Entry: CC(=O)N1c2ccccc2N(C(=O)CC2CCN(S(C)(=O)=O)CC2)C[C@@H]1C
RESULT: < 6.30

QUERY: Using the record for CC(=O)N1c2ccc(-c3ccc(S(=O)(=O)C4CC4)cc3)cc2N(C(=O)C2CCC2)C[C@@H]1C , report its pIC50.
RESULT: 6.30 to 7.30

QUERY: // pIC50 lookup, key: COC(=O)N1c2ccc(-c3cnn(CC(=O)N(C)C)c3)cc2N(C(=O)OC(C)C)C[C@@H]1C
RESULT: 6.30 to 7.30
